target_of_assay: KRAS G12V (Homo sapiens, UniProt P01116+P62937, G12V)
Sequence (P01116 1-169 isoform P01116-2 G12V limits assumed): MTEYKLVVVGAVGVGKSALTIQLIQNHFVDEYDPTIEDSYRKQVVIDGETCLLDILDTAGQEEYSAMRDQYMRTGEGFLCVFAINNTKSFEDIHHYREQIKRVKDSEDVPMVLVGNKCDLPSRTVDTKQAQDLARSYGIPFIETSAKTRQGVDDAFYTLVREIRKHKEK
Sequence (P62937 whole entry): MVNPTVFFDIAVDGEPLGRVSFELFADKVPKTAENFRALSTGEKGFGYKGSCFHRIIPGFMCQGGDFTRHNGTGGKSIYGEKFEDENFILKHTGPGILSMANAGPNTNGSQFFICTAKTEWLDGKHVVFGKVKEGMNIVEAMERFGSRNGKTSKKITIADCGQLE
assay_details: Disruption of BRAF RBD interaction with Ras (FRET / MOA assay, with Cyclophilin A)
Assay type: biochemical
setup_conditions: KRAS G12V; read-out: KRAS G12V FRET data IC50
pIC50: −log10 of the molar value.
measured_metric: pIC50

Parameter requested: pIC50. Apply to each item below.
1. CCn1c(-c2cccnc2[C@H](C)OC)c2c3cc(ccc31)-c1csc(n1)C[C@H](NC(=O)[C@H](C(C)C)N(C)C(=O)NC)C(=O)N1CCC[C@H](N1)C(=O)OCC(C)(C)C2
2. CCn1c(-c2cccnc2[C@H](C)OC)c2c3cc(ccc31)-c1csc(n1)C[C@H](NC(=O)[C@H](C(C)C)N(C)C(=O)[C@H]1CCN(C(=O)CNC)C1)C(=O)N1CCC[C@H](N1)C(=O)OCC(C)(C)C2

1. 6.00 to 7.00
2. 5.00 to 6.00

Specify reported pIC50 for the molecule shown: C=CC(=O)N1CCO[C@H]2CN(C(=O)N(C)[C@H](C(=O)N[C@H]3Cc4cccc(n4)-c4ccc5c(c4)c(c(-c4cccnc4[C@H](C)OC)n5CC(F)(F)F)CC(C)(C)COC(=O)C4CCCN(N4)C3=O)C(C)C)C[C@H]21 (stereo partly drawn) 5.00 to 6.00

====

I'd appreciate it if you could supply pIC50 values for the items below.
target_of_assay: KRAS G12S (Homo sapiens, UniProt P01116+P62937, G12S)
Sequence (P01116 1-169 isoform P01116-2 G12S limits assumed): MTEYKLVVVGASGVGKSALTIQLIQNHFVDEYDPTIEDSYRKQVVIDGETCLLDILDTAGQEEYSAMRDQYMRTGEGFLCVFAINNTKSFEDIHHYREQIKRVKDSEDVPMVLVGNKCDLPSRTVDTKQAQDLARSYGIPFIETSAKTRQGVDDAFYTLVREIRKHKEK
Sequence (P62937 whole entry): as the sequence (P62937 whole entry) above
assay_details: Disruption of BRAF RBD interaction with Ras (FRET / MOA assay, with Cyclophilin A)
Assay type: biochemical
setup_conditions: read-out: KRAS G12S FRET data, IC50
Description: This protocol may also be executed substituting other Ras proteins or nucleotides. The purpose of this biochemical assay was to measure the ability of test compounds to facilitate ternary complex formation between a nucleotide-loaded K-Ras isoform and Cyclophilin A; the resulting ternary complex disrupts binding to a BRAF^RBD construct, inhibiting K-Ras signaling through a RAF effector. Data is reported as IC50 values. […]
pIC50: −log10 of the molar value.

Worked examples, 5 compounds total:
[[record]]
compound = "CCn1c(-c2cccnc2[C@@H]2CCCO2)c2c3cc(ccc31)-c1csc(n1)C[C@H](NC(=O)[C@H](C(C)C)N(C)C(=O)N1CC(N(C)C)C1)C(=O)N1CCC[C@H](N1)C(=O)OCC(C)(C)C2 (atropisomer, axis not shown)"
target_of_assay = "KRAS G12S (Homo sapiens, UniProt P01116+P62937, G12S)"
result = "< 5.00"

[[record]]
compound = "CCn1c(-c2cccnc2[C@H](C)OC)c2c3cc(ccc31)-c1csc(n1)C[C@H](NC(=O)[C@H](C(C)C)N(C)C(=O)N1CC3CC(C1)N3C)C(=O)N1CCC[C@H](N1)C(=O)OCC(C)(C)C2"
target_of_assay = "KRAS G12S (Homo sapiens, UniProt P01116+P62937, G12S)"
result = "6.00 to 7.00"

[[record]]
compound = "C=CC(=O)N1CC[C@H](C(=O)N(C)[C@H](C(=O)N[C@H]2Cc3cc(O)cc(c3)-c3ccc4c(c3)c(c(-c3cnccc3COC)n4CC)CC(C)(C)COC(=O)[C@@H]3CCCN(N3)C2=O)C(C)C)C1"
target_of_assay = "KRAS G12S (Homo sapiens, UniProt P01116+P62937, G12S)"
result = "7.00 to 8.00"

[[record]]
compound = "CCn1c(-c2cnccc2COC)c2c3cc(ccc31)-c1cc(O)cc(c1)C[C@H](NC(=O)[C@H](C(C)C)N(C)C(=O)[C@@H]1CN(C(C)=O)C[C@@H]1C(F)(F)F)C(=O)N1CCC[C@H](N1)C(=O)OCC(C)(C)C2"
target_of_assay = "KRAS G12S (Homo sapiens, UniProt P01116+P62937, G12S)"
result = "6.00 to 7.00"

[[record]]
compound = "C=CC(=O)N1CC[C@H](C(=O)N(C)[C@H](C(=O)N[C@H]2Cc3cc(O)cc(c3)-c3ccc4c(c3)c(c(-c3cc(F)cnc3COC)n4CC)CC(C)(C)COC(=O)[C@@H]3CCCN(N3)C2=O)C(C)C)C1"
target_of_assay = "KRAS G12S (Homo sapiens, UniProt P01116+P62937, G12S)"
result = "6.00 to 7.00"


Parameter requested: pIC50. Apply to each item below.
1. CCn1c(-c2cccnc2[C@H](C)OC)c2c3cc(ccc31)-c1cc(O)cc(c1)C[C@H](NC(=O)[C@H](C(C)C)N(C)C(=O)C1CC13CC3)C(=O)N1CCC[C@H](N1)C(=O)OCC(C)(C)C2 (stereo partly drawn)
2. CCn1c(-c2cccnc2[C@H](C)OC)c2c3cc(ccc31)-c1csc(n1)C[C@H](NC(=O)[C@H](C(C)C)N(C)C(=O)[C@H]1CCCO1)C(=O)N1CCC[C@H](N1)C(=O)OCC(C)(C)C2
3. CCN(CC)C1CN(C(=O)N(C)[C@H](C(=O)N[C@H]2Cc3nc(cs3)-c3ccc4c(c3)c(c(-c3cccnc3[C@H](C)OC)n4CC)CC(C)(C)COC(=O)[C@@H]3CCCN(N3)C2=O)C(C)C)C1
4. CCn1c(-c2cccnc2[C@H](C)OC)c2c3cc(ccc31)-c1csc(n1)C[C@H](NC(=O)[C@H](C(C)C)N(C)C(=O)N1C[C@H]3CN(C)C[C@H]31)C(=O)N1CCC[C@H](N1)C(=O)OCC(C)(C)C2

1. 7.00 to 8.00
2. 5.00 to 6.00
3. 6.00 to 7.00
4. 5.00 to 6.00
